- study-system: APOBEC3A (A3A) wild-type (Homo sapiens, UniProt P31941 1-199)
- Sequence (P31941 whole entry): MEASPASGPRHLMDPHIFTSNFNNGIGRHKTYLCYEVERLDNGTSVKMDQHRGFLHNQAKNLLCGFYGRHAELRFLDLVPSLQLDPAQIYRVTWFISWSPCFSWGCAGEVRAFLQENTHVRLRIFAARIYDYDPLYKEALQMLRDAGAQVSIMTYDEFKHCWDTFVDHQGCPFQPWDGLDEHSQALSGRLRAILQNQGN
- experiment: NMR titration
reported-property: Kd (µM)

binder: AAACAAAAA (ssDNA, C deaminated to dU during titration) [AAACAAAAA (value is for dU-containing product)]
reported-property: Kd
experimental-value: 161
--
binder: AAACCAAAA (ssDNA, C deaminated to dU during titration) [AAACCAAAA (value is for dU-containing product)]
reported-property: Kd
experimental-value: 94
--
binder: TCATTT (ssDNA, C at position 2 converted to dU during titration) [TCATTT (6-nt; value is for dU product)]
reported-property: Kd
experimental-value: 194
--
binder: AAACCCAAA (ssDNA, C deaminated to dU during titration) [AAACCCAAA (value is for dU-containing product)]
reported-property: Kd
experimental-value: 91
